Would you kindly list log10 EC50 for each of these compounds?
- target-or-system: Free fatty acid receptor 1 (Homo sapiens)
- Sequence (O14842 whole entry): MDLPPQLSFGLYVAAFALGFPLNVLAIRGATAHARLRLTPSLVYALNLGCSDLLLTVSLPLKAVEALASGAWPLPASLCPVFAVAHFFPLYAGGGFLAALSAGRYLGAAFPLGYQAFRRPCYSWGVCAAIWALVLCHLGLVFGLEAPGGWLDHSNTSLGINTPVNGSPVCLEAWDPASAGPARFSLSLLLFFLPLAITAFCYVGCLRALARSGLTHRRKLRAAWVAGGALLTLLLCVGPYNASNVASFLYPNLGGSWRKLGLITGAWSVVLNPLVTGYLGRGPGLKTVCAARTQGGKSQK
- run-description: Agonist activity at human GPR40 by FLIPR assay in presence of 1% BSA
- Format: functional
- applied-conditions: read-out: EC50
A difference of one corresponds to tenfold EC50; all values are log10 with EC50 in nM.

compound	reported-result
Cc1cccc(Oc2ccc(CC3SC(=O)NC3=O)cc2)n1 (stereo unspecified)	3.42
O=C1NC(=O)C(Cc2ccc(Oc3ccccc3Cl)cc2)S1 (stereo unspecified)	3.08
O=C1NC(=O)C(Cc2ccc(Oc3ccc(Cl)cc3Cl)cc2)O1 (stereo unspecified)	3.60
Cc1cc(Oc2ncc(C(F)(F)F)cc2Cl)cc(C)c1CC1SC(=O)NC1=O (stereo unspecified)	3.74
O=C1NC(=O)C(Cc2ccc(C(=O)c3ccccc3)cc2)S1 (stereo unspecified)	3.72
O=C1CC(Cc2ccc(Oc3ccc(Cl)cc3Cl)cc2)C(=O)N1 (stereo unspecified)	3.81

// for each compound below, give its log10 EC50
1. Cc1ccc(Oc2ccc(CC3SC(=O)NC3=O)cc2)cc1 (stereo unspecified)
2. Cc1ccc(C)c(Oc2ccc(CC3SC(=O)NC3=O)cc2)c1 (stereo unspecified)
3. O=C1NC(=O)C(Cc2ccc(-c3ccccc3)cc2)S1 (stereo unspecified)
4. O=C1NC(=O)C(Cc2cccc(Oc3ccccc3)c2)S1 (stereo unspecified)
5. O=C1NC(=O)C(Cc2ccc(Oc3ccc(Cl)cc3)cc2)S1 (stereo unspecified)
6. O=C1NC(=O)C(Cc2ccc(Oc3ccc(Cl)cc3Cl)cc2)S1 (stereo unspecified)
7. O=C1NC(=O)C(Cc2ccc(Sc3ccccc3)cc2)S1 (stereo unspecified)

Result:
2.74
2.38
3.35
3.67
2.38
2.00
3.70
